Catalogue of pEC50 readings, one per entry.
target: CLDN3/4 endogenously expressed on LS513 and MCF7 cells; assay: FACS dose curve, labelled mAb, LS513 cells
pEC50 here is simply -log10 of the concentration when that concentration is written in mol/L.

| Binder | pEC50 |
| --- | --- |
| AB13 (antibody, V domains shown) VH: QVQLQQSGAELVRPGTSVKVSCKASGYAFSNYLIEWVKQRPGQGLEWIGVINPGSGGTNYNEKFKGKATMTADKSSSTAYMHLSNLTSEDSVVYFCARSYFGRSYPYTMDYWGQGTSVTVSS VL: EIVLTQSPTTMAASPGEKITITCSASSSISSNYLHWYQQKPGFSPKLLIYRTSNLASGVPARFSGSGSGTSYSLTIGTMEAEDVATYYCQQGSSIPLTFGAGTKLELK | 5.80 |

Q: What value of measured pEC50 is listed for AB1 (antibody, V domains shown) VH: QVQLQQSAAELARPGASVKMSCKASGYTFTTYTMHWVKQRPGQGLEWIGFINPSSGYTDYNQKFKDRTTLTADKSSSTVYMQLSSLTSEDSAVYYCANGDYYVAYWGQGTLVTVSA VL: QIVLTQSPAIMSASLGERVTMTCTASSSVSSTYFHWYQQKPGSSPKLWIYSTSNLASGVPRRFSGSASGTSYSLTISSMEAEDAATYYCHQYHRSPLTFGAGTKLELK ?
Result: 5.30

Q: What value of measured pEC50 is listed for AB14 (antibody, V domains shown) VH: QVQLQQSGPELVRPGVSVKISCKGSGYTFTDYAMHWVKQSHAKSLEWIGVISTYSGNTNYNQKFQDKATMTVDKSSSTAYMALARLTSDDSAIYYCARRGDYSLYAMDYWGQGTSVTVSS VL: DIVLTQSPASLAVSLGQRATISCKASQSVDYDGDNYVNWYQQKVGQPPKLLISAASNLESGIPARFSGSGSGTDFTLNIHPVEEEDAATYYCQQSNEDPFTFGSGTKLEIK ?
Result: 5.94
